method: Cell viability for BIA and analogues, DU145 cell line
Format: cell-based
setup conditions: human; DU145, 50 rpm
measured property: viability (%)

smi=COc1cccc(/C=C/C(=O)c2cc(OC)c(OC)cc2N)c1 numeric_value=54.9
smi=COc1cc(N)c(C(=O)/C=C/c2cccc([N+](=O)[O-])c2)cc1OC numeric_value=8.51
smi=CCOc1cc(F)ccc1/C=C/C(=O)c1ccccc1N numeric_value=75.8
smi=CCOc1ccc([N+](=O)[O-])cc1/C=C/C(=O)c1ccccc1N numeric_value=21.1
smi=Nc1ccccc1-c1cc(-c2cccc(C(F)(F)F)c2)on1 numeric_value=76.1
smi=Nc1ccccc1C(=O)/C=C/c1ccc(OC(F)(F)F)cc1 numeric_value=28.9
smi=Nc1ccccc1C(=O)/C=C/c1cccc(C(=O)O)c1 numeric_value=76.9
smi=Nc1ccccc1C(=O)/C=C/c1cc(F)c(O)c(F)c1 numeric_value=38.4
smi=COc1cc(N)c(C(=O)/C=C/c2cccc(Br)c2)cc1OC numeric_value=66.4
smi=Nc1ccccc1C(=O)/C=C/c1cccc(Cl)c1 numeric_value=11.9
